Reference source: patent US10800772B2

For each record, write down the corresponding log10 EC50.
Tested on: HIV-IIIb IN T174I BT
Test: Antiviral assay in MT4 cells, HIV-IIIb IN T174I BT virus (from viral breakthrough)
Assay type: cell-based, HIV-1
Conditions: Human immunodeficiency virus 1, IIIB, MT4, 120 h, read-out: T174I BT EC50, MT4 cells, HIV-IIIb IN T174I BT (viral breakthrough), 5 days, CellTiter-Glo
A difference of one corresponds to tenfold EC50; all values are log10 with EC50 in nM.

Lab note: Cc1cc2nc(-c3cnc4c(c3)c(C3CCN(C5CN(C(=O)OC(C)(C)C)C5)CC3)nn4C)sc2c(-c2ccc(Cl)cc2)c1[C@H](OC(C)(C)C)C(=O)O gave log10 EC50 of 3.58

Lab note: Cc1cc2nc(-c3ccc4c(c3)c(N3CCN(CCN5CCOCC5)C3=O)nn4C)sc2c(-c2ccc(Cl)cc2)c1[C@H](OC(C)(C)C)C(=O)O gave log10 EC50 of 3.35

Lab note: CCn1nc(C2CCN(C3COC3)CC2)c2nc(-c3nc4cc(C)c([C@H](OC(C)(C)C)C(=O)O)c(-c5ccc(Cl)cc5)c4s3)ccc21 gave log10 EC50 of 1.67

Lab note: COC(=O)N1CC(N2CCC(c3nn(C)c4ncc(-c5nc6cc(C)c([C@H](OC(C)(C)C)C(=O)O)c(-c7ccc(Cl)cc7)c6s5)nc34)CC2)C1 gave log10 EC50 of 2.49

Lab note: CCn1nc(C2CCN([C@@H]3CCN(C(=O)OC)C3)CC2)c2cc(-c3nc4cc(C)c([C@H](OC(C)(C)C)C(=O)O)c(-c5ccc(Cl)cc5)c4s3)ccc21 gave log10 EC50 of 1.87

Lab note: Cc1cc2nc(-c3ccc4c(c3)c(N3CC(C)(C)N(C)C3=O)nn4C)sc2c(-c2ccc(Cl)cc2)c1[C@H](OC(C)(C)C)C(=O)O gave log10 EC50 of 3.16

Lab note: CCn1nc2ccc(-c3nc4cc(C)c([C@H](OC(C)(C)C)C(=O)O)c(-c5ccc(Cl)cc5)c4s3)cc2c1C1CCN(C2COC2)CC1 gave log10 EC50 of 3.03

Lab note: [2H]C([2H])([2H])n1nc(C2CCN(C3CN(C(=O)OC)C3)CC2)c2nc(-c3nc4cc(C)c([C@H](OC(C)(C)C)C(=O)O)c(-c5ccc(Cl)cc5)c4s3)ccc21 gave log10 EC50 of 1.74

Lab note: CCN1CCN(c2nn(C)c3ccc(-c4nc5cc(C)c([C@H](OC(C)(C)C)C(=O)O)c(-c6ccc(Cl)cc6)c5s4)cc23)CC1=O gave log10 EC50 of 3.10

Lab note: COC(=O)N1CCC(c2nn(C)c3ccc(-c4nc5cc(C)c([C@H](OC(C)(C)C)C(=O)O)c(-c6ccc(Cl)cc6)c5s4)cc23)C1 (some centres unmarked) gave log10 EC50 of 2.74

Lab note: Cc1cc2nc(-c3ccc4c(c3)c(N3CCN5C(=O)COC[C@H]5C3)nn4C)sc2c(-c2ccc(Cl)cc2)c1[C@H](OC(C)(C)C)C(=O)O gave log10 EC50 of 2.66

Lab note: COC(=O)N1CC(N2CCC(c3nn(C(F)F)c4ccc(-c5nc6cc(C)c([C@H](OC(C)(C)C)C(=O)O)c(-c7ccc(Cl)cc7)c6s5)cc34)CC2)C1 gave log10 EC50 of 2.78

Lab note: COCC(COC)N1CC(c2nn(C)c3ccc(-c4nc5cc(C)c([C@H](OC(C)(C)C)C(=O)O)c(-c6ccc(Cl)cc6)c5s4)cc23)C1 gave log10 EC50 of 3.21

Lab note: Cc1cc2nc(-c3ccc4c(c3)c(C3CCN(C(=O)OC(C)(C)C)CC3)nn4C)sc2c(-c2ccc(Cl)cc2)c1[C@H](OC(C)(C)C)C(=O)O gave log10 EC50 of 2.99

Lab note: Cc1cc2nc(-c3ccc4c(c3)c(N3C5CCC3CN(C3COC3)C5)nn4C)sc2c(-c2ccc(Cl)cc2)c1[C@H](OC(C)(C)C)C(=O)O gave log10 EC50 of 3.09

Lab note: Cc1cc2nc(-c3ccc4c(c3)c(N3CC5(CCCCC5)C3)nn4C)sc2c(-c2ccc(Cl)cc2)c1[C@H](OC(C)(C)C)C(=O)O gave log10 EC50 of 3.83

Lab note: Cc1cc2nc(-c3ccc4c(c3)c(C3CCN(C)C3)nn4C)sc2c(-c2ccc(Cl)cc2)c1[C@H](OC(C)(C)C)C(=O)O (some centres unmarked) gave log10 EC50 of 3.45

Lab note: CCn1nc(C2CCN(C3CN(C(=O)OC)C3)CC2)c2cc(-c3nc4cc(C)c([C@H](OC(C)(C)C)C(=O)O)c(-c5ccc(Cl)cc5)c4s3)ccc21 gave log10 EC50 of 1.85

Lab note: Cc1cc2nc(-c3ccc4c(n3)c(N3CCN([C@H]5C[C@@H](O)C5)CC3)nn4C)sc2c(-c2ccc(Cl)cc2)c1[C@H](OC(C)(C)C)C(=O)O gave log10 EC50 of 2.97

Lab note: Cc1cc2nc(-c3ccc4c(n3)c(C3CCN(CCN(C)C)CC3)nn4C)sc2c(-c2ccc(Cl)cc2)c1[C@H](OC(C)(C)C)C(=O)O gave log10 EC50 of 1.65

Lab note: Cc1cc2nc(-c3cnc4c(c3)c(N3CCN(C5COC5)CC3)nn4C)sc2c(-c2ccc(Cl)cc2)c1[C@H](OC(C)(C)C)C(=O)O gave log10 EC50 of 3.10

Lab note: CC(=O)N1CC(N2CCC(c3nn(C)c4ccc(-c5nc6cc(C)c([C@H](OC(C)(C)C)C(=O)O)c(-c7ccc(Cl)cc7)c6s5)cc34)CC2)C1 gave log10 EC50 of 2.05

Lab note: Cc1cc2nc(-c3ccc4c(c3)c(N3CC5(CN(C)C5)C3)nn4C)sc2c(-c2ccc(Cl)cc2)c1[C@H](OC(C)(C)C)C(=O)O gave log10 EC50 of 4.76
